- Tested on: 786-0 renal
- Assay details: NCI tumour cell line growth inhibition, 48 h
Value type: TGI

Cc1ccc(C2=NN(c3ccc(S(N)(=O)=O)cc3)C(c3cn(-c4ccccc4)nc3-c3ccccc3)C2)cc1 (stereo unspecified) ... > 100 µM
Cc1ccc(/C=N/NS(=O)(=O)c2ccc(/C=C3\NC(=O)NC3=O)cc2)cc1 ... > 100 µM
C=CCC1C(=O)Nc2cccc3ncn(c23)C1=O (stereo unspecified) ... > 100 µM
CC1(O)Oc2ccc3ccccc3c2C=C1C(N)=O (stereo unspecified) ... > 100 µM
CCCN1C(=O)CNC(=O)c2[nH]cnc21 ... > 100 µM
Cc1c(CC/C(=N\Nc2ccc([N+](=O)[O-])cc2[N+](=O)[O-])c2ccccc2)c2ccccc2n1C ... > 100 µM
COc1ccc(C2CC(=O)c3c(O)c(OC)c(OC)c(OC)c3O2)cc1O (stereo unspecified) ... > 100 µM
CCCCCC/C=C1\CCC(CN(C)C)C1=O (stereo unspecified) ... 3.99 µM

## Input Report measured TGI; entry is Cn1c(=O)c2c(nc(NCCNc3nc4c(c(=O)n(C)c(=O)n4C)n3C)n2C)n(C)c1=O
## Output > 100 µM

## Input Report measured TGI; entry is COc1cc2c3c(n(CCCN4CCCC(O)C4)c(=O)c2cc1OC)-c1cc2c(cc1C3=O)OCO2 (stereo unspecified)
## Output 0.115 µM

## Input Report measured TGI; entry is O=C(Cc1ccccc1)NS(=O)(=O)c1ccccc1
## Output > 100 µM

## Input Report measured TGI; entry is N#CCc1nc(-c2cc3c(ccc4ccccc43)oc2=O)cs1
## Output 51.6 µM

## Input Report measured TGI; entry is O=C(O)[C@@H](NS(=O)(=O)c1ccc([N+](=O)[O-])cc1)c1ccccc1
## Output > 100 µM
